Species: Rattus norvegicus
Test: DrugMatrix - Regimen: Daily Repeat
Assay type: toxicity, organism-based, Sprague-Dawley
Parameters: regimen Daily Repeat, gender Male, age 6-8 weeks
Details: in vivo, po, 10 mg/kg, 120 h, tissue Plasma, route oral GAVAGE, dose level Low, time 5 day, […]
Listed here are compounds together with their documented ALANINE AMINOTRANSFERASE.
Please respond with the number in u/L and leave the unit unwritten.

These solved cases illustrate the format of a correct answer.
>>> df
                                   compound  unit  measurement
0  COCCOC(=O)C1=C(C)NC(C)=C(C(=O)OC(C)C)C1c1cccc([N+](=O)[O-])c1 (centres undefined)   u/L        59.33
1  CCOC(=O)C1=C(C)NC(C)=C(C(=O)OC)C1c1cccc([N+](=O)[O-])c1 (centres undefined)   u/L           72
2  CC(C)CC(N(C)C)C1(c2ccc(Cl)cc2)CCC1 (centres undefined)   u/L        55.67

We next turn to a different compound, shown below.
What value of ALANINE AMINOTRANSFERASE has been recorded for this entry: COc1ccc2cc([C@H](C)C(=O)O)ccc2c1
109.67

* * *

Organism: Rattus norvegicus
Assay: DrugMatrix - Regimen: Daily Repeat
Type: toxicity, organism-based, Sprague-Dawley
Parameters: regimen Daily Repeat, gender Male, age 6-8 weeks
Details: in vivo, po, 0 mg/kg, 72 h, tissue Plasma, route oral GAVAGE, dose level Control, time 3 day, vehicle .5 % CMC
# reported GLUCOSE; entries follow
Answer in mg/dL, number only, no unit symbol.

Compound	GLUCOSE, mg/dL
CN1CCC(=C2c3ccccc3C=Cc3ccccc32)CC1 [CYPROHEPTADINE]	173.17
C#C[C@]1(O)CC[C@H]2[C@@H]3CCc4cc(OC)ccc4[C@H]3CC[C@@]21C [MESTRANOL]	142.67
CC(=O)CC(c1ccccc1)c1c(O)c2ccccc2oc1=O (stereo unspecified) [WARFARIN]	168.83
OC(CCN1CCCCC1)(c1ccccc1)C1CCCCC1 (stereo unspecified) [TRIHEXYPHENIDYL]	164

Entry CNC(=C[N+](=O)[O-])NCCSCc1ccc(CN(C)C)o1 [RANITIDINE] has what GLUCOSE?
142.67

Item under review: CC(C)[C@H]1CC[C@H](C(=O)N[C@H](Cc2ccccc2)C(=O)O)CC1 [NATEGLINIDE] . Reported GLUCOSE?
152

Tell me the measured GLUCOSE of C[C@]1(Cn2ccnn2)[C@H](C(=O)O)N2C(=O)C[C@H]2S1(=O)=O [TAZOBACTAM] , please.
171.33

Please report the recorded GLUCOSE for CN1C(=O)COc2c(C(=O)NC3CN4CCC3CC4)cc(Cl)cc21 (stereo unspecified) [AZASETRON] .
151.67

* * *

Species: Rattus norvegicus
Test: DrugMatrix - Regimen: Daily Repeat
Type: toxicity, organism-based, Sprague-Dawley
Design: regimen Daily Repeat, gender Male, age 6-8 weeks
Conditions: in vivo, po, 0 mg/kg, 72 h, tissue Blood, route oral GAVAGE, dose level Control, time 3 day, vehicle 100 % WATER
Property: NUCLEATED RED BLOOD CELLS

Please look up its NUCLEATED RED BLOOD CELLS: COC(=O)C1=C(C)NC(C)=C(C(=O)OCC(C)C)C1c1ccccc1[N+](=O)[O-] (stereo not given) [NISOLDIPINE]
0 /100WBC

So what's the measured NUCLEATED RED BLOOD CELLS for this one? Nc1ccn([C@@H]2CS[C@H](CO)O2)c(=O)n1 [LAMIVUDINE]
0.67 /100WBC

* * *

Species on record: Rattus norvegicus
Type: toxicity, organism-based, Sprague-Dawley
Conditions: in vivo, sc, 0.5 mg/kg, 24 h, tissue Blood, route mini-PUMP - SUBCUTANEOUS, dose level High, time 1 day, vehicle 100 % SALINE
Description: DrugMatrix - Regimen: Single
Property: ABSOLUTE MONOCYTE
Kindly write the number and append the unit.

I have this compound here, CC[C@H](C)[C@H](NC(=O)[C@H](Cc1ccc(O)cc1)NC(=O)[C@@H](NC(=O)[C@H](CCCNC(=N)N)NC(=O)[C@@H](N)CC(=O)O)C(C)C)C(=O)N[C@@H](Cc1cnc[nH]1)C(=O)N1CCC[C@H]1C(=O)N[C@@H](Cc1ccccc1)C(=O)O [ANGIOTENSIN II] , and I need its recorded ABSOLUTE MONOCYTE.
230 cells/µL

* * *

// MEAN CORPUSCULAR VOLUME lookup, one value per entry
Species on record: Rattus norvegicus
Experiment: DrugMatrix - Regimen: Daily Repeat
Assay type: toxicity, organism-based, Sprague-Dawley
Design: regimen Daily Repeat, gender Male, age 6-8 weeks
Conditions: in vivo, po, 0 mg/kg, 72 h, tissue Blood, route oral GAVAGE, dose level Control, time 3 day, vehicle 100 % WATER
// return numeric value only (unit: fL, not printed)

Recorded MEAN CORPUSCULAR VOLUME, per entry:
In [3]: df
Out[3]:
                                   compound                 property  unit  measurement
0                 Cc1ncc([N+](=O)[O-])n1CCO  MEAN CORPUSCULAR VOLUME    fL        63.52
1  COC(=O)C1=C(C)NC(C)=C(C(=O)OCC(C)C)C1c1ccccc1[N+](=O)[O-] (centres undefined)  MEAN CORPUSCULAR VOLUME    fL         61.8
2  C[C@@H]1C[C@@H]([C@H](O)CC2CC(=O)NC(=O)C2)C(=O)[C@@H](C)C1 [CYCLOHEXIMIDE]  MEAN CORPUSCULAR VOLUME    fL        64.23

Next, consider the following compound.
For the compound shown here, ClC(Cl)Cl [CHLOROFORM] , give the reported MEAN CORPUSCULAR VOLUME.
63.52

* * *

The entries below are paired with their reported ALKALINE PHOSPHATASE.
Species on record: Rattus norvegicus
Test: DrugMatrix - Regimen: Daily Repeat
Assay type: toxicity, organism-based, Sprague-Dawley
Parameters: regimen Daily Repeat, gender Male, age 6-8 weeks
Conditions: in vivo, po, 10 mg/kg, 72 h, tissue Plasma, route oral GAVAGE, dose level Low, time 3 day, […]
Please append the unit to your numeric answer.

Solved cases (3 shown):
>>> print(df.to_string())
                                   molecule              property  measurement
0  CCOC(=O)C1=C(C)NC(C)=C(C(=O)OC)C1c1cccc([N+](=O)[O-])c1 (centres undefined)  ALKALINE PHOSPHATASE      422 u/L
1  COCCOC(=O)C1=C(C)NC(C)=C(C(=O)OC(C)C)C1c1cccc([N+](=O)[O-])c1 (centres undefined)  ALKALINE PHOSPHATASE   445.67 u/L
2  CC(C)CC(N(C)C)C1(c2ccc(Cl)cc2)CCC1 (centres undefined)  ALKALINE PHOSPHATASE      368 u/L

Consider the molecule COc1ccc2cc([C@H](C)C(=O)O)ccc2c1 and give its measured ALKALINE PHOSPHATASE.
469.67 u/L

* * *

Species on record: Rattus norvegicus
Test: DrugMatrix - Regimen: Daily Repeat
Assay type: toxicity, organism-based, Sprague-Dawley
Design: regimen Daily Repeat, gender Male, age 6-8 weeks
Conditions: in vivo, po, 0 mg/kg, 72 h, tissue Blood, route oral GAVAGE, dose level Control, time 3 day, […]
The following compounds are listed with their measured MONOCYTE values.
Dear colleague, please return just the value in %, with no unit written.

Compound	Unit	MONOCYTE
Clc1ccc(Cl)cc1 [1,4-DICHLOROBENZENE]	%	1.8
C[C@]12CC[C@@H]3c4ccc(O)cc4CC[C@H]3[C@@H]1CC[C@@H]2O [ESTRADIOL]	%	2.5
CC/C(=C(/CC)c1ccc(O)cc1)c1ccc(O)cc1 [DIETHYLSTILBESTROL]	%	0.17
CC(=O)Nc1cccc(O)c1 [METACETAMOL]	%	0.83
CC(=O)Nc1ccc(O)cc1 [ACETAMINOPHEN]	%	0.67

Would you mind telling me what MONOCYTE value was observed for CCOC(=O)C(C)(C)Oc1ccc(Cl)cc1 [CLOFIBRATE] ?
1.67

Requested read-out: MONOCYTE. Entry: CCOC(=O)C1=C(C)NC(C)=C(C(=O)OC)C1c1cccc([N+](=O)[O-])c1 (stereo not drawn) [NITRENDIPINE]
1

Look up MONOCYTE for this compound: C[C@H]1O[C@@H](O[C@H]2[C@@H](O)C[C@H](O[C@H]3[C@@H](O)C[C@H](O[C@H]4CC[C@@]5(C)[C@H](CC[C@@H]6[C@@H]5CC[C@]5(C)[C@@H](C7=CC(=O)OC7)CC[C@]65O)C4)O[C@@H]3C)O[C@@H]2C)C[C@H](O)[C@@H]1O [DIGITOXIN]
0.67
